From: ChEMBL document CHEMBL5214960

- assayed.target: Receptor-type tyrosine-protein phosphatase beta (Homo sapiens)
- Sequence (P23467 whole entry): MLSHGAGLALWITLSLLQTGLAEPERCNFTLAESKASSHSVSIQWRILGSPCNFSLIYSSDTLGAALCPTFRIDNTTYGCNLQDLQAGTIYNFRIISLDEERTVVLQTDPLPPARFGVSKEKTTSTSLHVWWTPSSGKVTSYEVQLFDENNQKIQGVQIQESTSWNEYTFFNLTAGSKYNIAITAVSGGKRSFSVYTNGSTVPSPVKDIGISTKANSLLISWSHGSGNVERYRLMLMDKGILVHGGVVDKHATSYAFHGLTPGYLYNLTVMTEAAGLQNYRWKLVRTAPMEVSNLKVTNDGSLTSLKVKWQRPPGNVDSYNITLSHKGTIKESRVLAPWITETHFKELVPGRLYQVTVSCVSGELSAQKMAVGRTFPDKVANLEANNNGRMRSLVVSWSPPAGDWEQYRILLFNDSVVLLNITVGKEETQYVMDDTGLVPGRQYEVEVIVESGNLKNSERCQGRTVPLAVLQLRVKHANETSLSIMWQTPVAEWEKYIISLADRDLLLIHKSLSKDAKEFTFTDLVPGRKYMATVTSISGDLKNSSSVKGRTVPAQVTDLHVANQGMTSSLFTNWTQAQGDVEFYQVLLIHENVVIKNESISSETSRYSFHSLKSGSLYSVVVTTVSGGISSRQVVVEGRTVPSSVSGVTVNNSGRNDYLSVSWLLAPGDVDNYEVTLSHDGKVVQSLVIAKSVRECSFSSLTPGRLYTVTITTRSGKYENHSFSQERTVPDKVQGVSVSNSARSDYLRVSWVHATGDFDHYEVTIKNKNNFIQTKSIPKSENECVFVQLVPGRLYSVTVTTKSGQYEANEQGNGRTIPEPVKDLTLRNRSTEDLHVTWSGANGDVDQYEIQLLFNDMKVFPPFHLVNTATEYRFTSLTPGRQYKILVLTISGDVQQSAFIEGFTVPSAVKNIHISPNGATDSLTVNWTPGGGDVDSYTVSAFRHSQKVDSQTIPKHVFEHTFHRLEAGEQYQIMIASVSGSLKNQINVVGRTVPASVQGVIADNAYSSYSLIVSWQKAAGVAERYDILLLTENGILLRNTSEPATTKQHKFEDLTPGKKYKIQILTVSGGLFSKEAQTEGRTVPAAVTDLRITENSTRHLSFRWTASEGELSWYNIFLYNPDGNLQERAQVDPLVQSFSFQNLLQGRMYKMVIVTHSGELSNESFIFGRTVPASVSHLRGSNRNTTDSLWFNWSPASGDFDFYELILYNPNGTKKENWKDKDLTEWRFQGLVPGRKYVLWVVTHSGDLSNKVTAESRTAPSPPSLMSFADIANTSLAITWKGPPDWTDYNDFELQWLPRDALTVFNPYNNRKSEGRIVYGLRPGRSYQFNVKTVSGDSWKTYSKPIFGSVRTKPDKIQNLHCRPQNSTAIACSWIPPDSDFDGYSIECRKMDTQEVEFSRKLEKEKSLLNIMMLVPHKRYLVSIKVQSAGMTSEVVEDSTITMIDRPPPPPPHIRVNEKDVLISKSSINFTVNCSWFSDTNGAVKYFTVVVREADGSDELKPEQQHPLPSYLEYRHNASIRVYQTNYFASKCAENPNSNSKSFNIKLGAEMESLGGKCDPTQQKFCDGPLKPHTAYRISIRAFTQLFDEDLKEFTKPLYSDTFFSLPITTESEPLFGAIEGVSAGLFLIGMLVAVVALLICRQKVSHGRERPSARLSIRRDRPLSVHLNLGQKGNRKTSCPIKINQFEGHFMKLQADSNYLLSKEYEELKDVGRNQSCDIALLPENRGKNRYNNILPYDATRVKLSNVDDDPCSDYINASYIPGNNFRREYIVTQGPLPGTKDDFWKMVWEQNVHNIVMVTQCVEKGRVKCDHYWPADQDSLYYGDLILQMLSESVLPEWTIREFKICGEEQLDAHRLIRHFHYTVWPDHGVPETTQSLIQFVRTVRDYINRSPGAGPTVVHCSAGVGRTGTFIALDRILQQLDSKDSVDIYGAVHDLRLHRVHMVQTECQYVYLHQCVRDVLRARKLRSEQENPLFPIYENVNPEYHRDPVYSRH
pIC50: −log10 of the molar value.
property.name: pIC50

Fill in: pIC50 of `Cc1c(Br)cc(NC(=O)NS(=O)(=O)O)cc1Br` is ___
< 5.00

---

- test.details: AUC(0 to 8 hrs) in CD-1 mouse plasma at 10 mg/kg, po measured after 8 hrs by LC-MS/MS analysis
- Assay type: ADME, organism-based
- Parameters: dose 10 mg/kg, time 8 hrs, route po
- details: in vivo
property.name: AUC (µM·h)
Give just the numeric value; µM·h need not be written.

Examples with answers:
Cc1c(Br)cc(NC(=O)CS(=O)(=O)O)cc1Br : 8.8
O=C(CS(=O)(=O)O)Nc1ccc(N2CCOCC2)c(Br)c1 : 1.94
Cc1c(Br)cc(NC(=O)C(c2ccccc2)S(=O)(=O)O)cc1Br (centres undefined) : 5.24

Next up:
Fill in: AUC of `Cc1c(Br)cc(NC(=O)NS(=O)(=O)O)cc1Br` is ___
37.3
